The origin of these recorded values is patent US20060193821.

# subject of test: IL-23 (human, p19/p40 heterodimer) (Homo sapiens, UniProt Q9NPF7;P29460 SEQ:20-189,SEQ:23-328)
# Sequence (Q9NPF7 20-189, chain 1 of 2): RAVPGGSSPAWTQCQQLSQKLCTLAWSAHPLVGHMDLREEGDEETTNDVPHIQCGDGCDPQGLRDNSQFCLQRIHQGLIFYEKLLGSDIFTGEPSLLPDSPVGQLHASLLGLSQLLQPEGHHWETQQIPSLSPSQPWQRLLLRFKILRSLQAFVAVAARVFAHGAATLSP
# Sequence (P29460 23-328, chain 2 of 2): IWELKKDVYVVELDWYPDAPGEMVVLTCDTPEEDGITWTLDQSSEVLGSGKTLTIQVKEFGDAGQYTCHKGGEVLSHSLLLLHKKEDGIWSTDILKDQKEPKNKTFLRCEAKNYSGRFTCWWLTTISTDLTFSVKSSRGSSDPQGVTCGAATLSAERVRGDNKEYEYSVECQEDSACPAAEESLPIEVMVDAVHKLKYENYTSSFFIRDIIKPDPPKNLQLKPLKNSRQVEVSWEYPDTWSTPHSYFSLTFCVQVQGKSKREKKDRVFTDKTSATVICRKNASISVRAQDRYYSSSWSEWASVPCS
# experimental protocol: competition; 1X PBS, 0.1 mg/mL BSA; direct Kd 93 nM with tRNA, 90 nM without
# test parameters: tags: R&D Systems, carrier free; label: 5'-32P; G4
observation type: pKd
Scale explanation: pKd corresponds to minus log10 of a concentration expressed in moles per litre.

Data request: Would you kindly share the measured pKd for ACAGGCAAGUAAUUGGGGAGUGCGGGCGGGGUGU (mixed, 2'-deoxy A and G, 2'-OMe C and U (dRmY)) [ARC979] ?
Data returned: 8.05
